Data provenance is patent US8772500B2.

measurement-description: In vitro rat microsomal stability assay
Format: in vitro ADME, rat (Sprague-Dawley)
experimental-setup: Sprague-Dawley, rat, 0.5 h, 0.5 μM, pH 7.4
Entries are grouped by RAT MICROSOMAL STABILITY (% REMAINING AFTER 30 MINUTES) into these classes: LOW = under 8%, MEDIUM = from 8% up to 40%, HIGH = 40% and over

Take a look at these entries with their results.
compound	assigned-label
OC1CC(c2ccc(C(F)(F)F)cc2)([C@H](O)c2ccccn2)C1 (stereo partly drawn)	HIGH
CCN(CC)c1ccc(C2(C(O)c3ccccn3)CCC2)cc1 (stereo not drawn)	LOW
OC(c1ccccn1)C1(c2cccc(F)c2)CCCO1 (single isomer, unassigned) [Example 101]	LOW
O[C@H](c1ccccn1)C1(c2cc(C(F)(F)F)ccn2)CC(F)(F)C1	LOW
OC(c1ccccn1)C1(C2CCOc3ccccc32)CCC1 (stereo not drawn)	MEDIUM
OC1CC(c2ccc(OC(F)(F)F)cc2)(C(O)c2ccccn2)C1 (single isomer, unassigned) [Example 131]	HIGH

Please report the category associated with OC(c1ccccn1)C1(c2cccc(C(F)(F)F)c2)CCCO1 (stereo not drawn) [Example 106] , nothing else.
LOW

Please report the category associated with OC(c1ccccn1)C1(c2ccnc(C(F)(F)F)c2)CC2(C1)OCCO2 (stereo not drawn) , nothing else.
LOW

Please report the category associated with OC(C1CCCc2cccnc21)C1(c2ccc(OC(F)(F)F)cc2)CCC1 (single isomer, unassigned) [Example 178] , nothing else.
LOW

Please report the category associated with OC(C1CCCc2cccnc21)C1(c2ccccc2C(F)(F)F)CCC1 (stereo not drawn) [Example 195] , nothing else.
LOW

Please report the category associated with "O[C@@H](c1ccccn1)C1(c2ccc(OC(F)(F)F)cc2)CC(F)(F)C1" , nothing else.
HIGH

Please report the category associated with OC(c1ccccn1)C1(c2ccc(C(F)(F)F)cc2)CNC1 (stereo not drawn) , nothing else.
HIGH
